Would you mind telling me the reported selectivity ratio of each entry?
experiment: Selectivity index, ratio of IC50 for HUVEC to IC50 for human K562 cells; type: toxicity; conditions: HUVEC versus K562 cells, read-out: Ratio IC50
Answers are plain numbers.

Known selectivity ratio results, listed for orientation:
Exam item: Can you look up the measured selectivity ratio of C=CCc1ccc(O)c(-c2ccc(O)c(CC=C)c2)c1 for me?
Marked response: 2.2

Exam item: Recorded selectivity ratio of C=CCc1cc(NC(=O)C=C)c(O)c(-c2cc(CC=C)c(O)c(NC(=O)C=C)c2)c1 , please.
Marked response: 11.5

Turning now to a further record.
Exam item: Consider the compound shown here: C=CCc1cc2c(c(-c3cc(CC=C)c4c(c3)NC(=O)CO4)c1)OCC(=O)N2 What is its recorded selectivity ratio?
Marked response: 11.6
